System: MOLT-4 leukemia
EXPERIMENTAL DETAILS: NCI tumour cell line growth inhibition, 48 h
Provide the reported TGI of each item.
Use µM as the unit, but write only the number.

GET /value?item= NCCNc1nc2ccc(F)cc2c2c(=O)c3cc(F)ccc3sc12 &field=TGI returns 3.92

GET /value?item= CCOC(=O)CCCOc1cc(-c2ccccc2F)nc2cc3c(cc12)OCO3 &field=TGI returns 98

====

Provide the reported GI50 of each item.
Test system: CCRF-CEM leukemia
EXPERIMENTAL DETAILS: NCI tumour cell line growth inhibition, 48 h

GET /value?item= CCN1Cc2c(/C=C/c3ccccc3)nc3ccc(OC)cc3c2N(c2cccc(Cl)c2)C1 &field=GI50 returns 2.17 µM

GET /value?item= NCCNc1nc2ccc(F)cc2c2c(=O)c3cc(F)ccc3sc12 &field=GI50 returns 2.11 µM

GET /value?item= COc1cc2c3c(n(CCCN=[N+]=[N-])c(=O)c2cc1OC)-c1ccc(NC(C)=O)cc1C3=O &field=GI50 returns > 50 µM

GET /value?item= Nc1ncc(-c2ccc3ncnc(N4CCc5cc(F)c(Cl)cc54)c3c2)cc1C(F)(F)F &field=GI50 returns 2.68 µM

GET /value?item= COc1ccc(OC)c(-c2nc3sc(C)cn3c2/C=C2\C(=O)N(C)c3ccccc32)c1 &field=GI50 returns 5.8 µM

GET /value?item= C=C(C)[C@@H]1CC[C@]2(COC(=O)c3ccccc3C(=O)O)CC[C@]3(C)[C@H](CC[C@@H]4[C@@]5(C)CC[C@H](OC(=O)c6ccccc6C(=O)O)C(C)(C)[C@@H]5CC[C@]43C)[C@@H]12 &field=GI50 returns 30.5 µM

GET /value?item= COc1cc(-c2cn(-c3ccc(F)cc3)c(=O)[nH]2)cc(OC)c1OC &field=GI50 returns > 100 µM

GET /value?item= COc1cc(NC(=O)c2cc3ccccc3cc2O)c(OC)cc1Cl &field=GI50 returns 2.61 µM

GET /value?item= COc1ccc(-c2cncn2-c2ccc(-c3nc4cc(OC)c(OC)c(OC)c4s3)cc2)cc1N &field=GI50 returns 3.41 µM

GET /value?item= COc1ncc(-c2ccc3ncnc(Nc4cccc(Cl)c4)c3c2)cc1NS(C)(=O)=O &field=GI50 returns 2.81 µM

GET /value?item= COC(=O)C(Br)(C(=O)OC)C(Br)C(Br)C(Br)c1ccccc1 (stereo unspecified) &field=GI50 returns 2 µM
